assay: total protein half-life in vivo (active degradation + dilution); higher = more stable protein; conditions: E. coli NCM3722 delta-hslV; growth: N-lim chemostat; doubling time 6 h
experimental_readout: total protein half-life in vivo (h)

>>> reported("MKKWSRHLLAAGALALGMSAAHADDNNTLYFYNWTEYVPPGLLEQFTKETGIKVIYSTYESNETMYAKLKTYKDGAYDLVVPSTYYVDKMRKEGMIQKIDKSKLTNFSNLDPDMLNKPFDPNNDYSIPYIWGATAIGVNGDAVDPKSVTSWADLWKPEYKGSLLLTDDAREVFQMALRKLGYSGNTTDPKEIEAAYNELKKLMPNVAAFNSDNPANPYMEGEVNLGMIWNGSAFVARQAGTPIDVVWPKEGGIFWMDSLAIPANAKNKEGALKLINFLLRPDVAKQVAETIGYPTPNLAARKLLSPEVANDKTLYPDAETIKNGEWQNDVGAASSIYEEYYQKLKAGR [P0AFK9]")
6.46

###

assay: total protein half-life in vivo (active degradation + dilution); higher = more stable protein; conditions: wild type E. coli NCM3722; growth: C-lim chemostat; doubling time 3 h
experimental_readout: total protein half-life in vivo (h)

>>> reported("MPAENIVEVHHLKKSVGQGEHELSILTGVELVVKRGETIALVGESGSGKSTLLAILAGLDDGSSGEVSLVGQPLHNMDEEARAKLRAKHVGFVFQSFMLIPTLNALENVELPALLRGESSAESRNGAKALLEQLGLGKRLDHLPAQLSGGEQQRVALARAFNGRPDVLFADEPTGNLDRQTGDKIADLLFSLNREHGTTLIMVTHDLQLAARCDRCLRLVNGQLQEEA [P0A9T8]")
3.23
>>> reported("MSKSLQKPTILNVETVARSRLFTVESVDLEFSNGVRRVYERMRPTNREAVMIVPIVDDHLILIREYAVGTESYELGFSKGLIDPGESVYEAANRELKEEVGFGANDLTFLKKLSMAPSYFSSKMNIVVAQDLYPESLEGDEPEPLPQVRWPLAHMMDLLEDPDFNEARNVSALFLVREWLKGQGRV")
3.39
>>> reported("MADITLISGSTLGGAEYVAEHLAEKLEEAGFTTETLHGPLLEDLPASGIWLVISSTHGAGDIPDNLSPFYEALQEQKPDLSAVRFGAIGIGSREYDTFCGAIDKLEAELKNSGAKQTGETLKINILDHDIPEDPAEEWLGSWVNLLK")
2.86

###

test: total protein half-life in vivo (active degradation + dilution); higher = more stable protein; details: wild type E. coli NCM3722; growth: N-lim chemostat; doubling time 12 h
experimental_readout: total protein half-life in vivo (h)

>>> reported("MSHVELQPGFDFQQAGKEVLAIERECLAELDQYINQNFTLACEKMFWCKGKVVVMGMGKSGHIGRKMAATFASTGTPSFFVHPGEAAHGDLGMVTPQDVVIAISNSGESSEITALIPVLKRLHVPLICITGRPESSMARAADVHLCVKVAKEACPLGLAPTSSTTATLVMGDALAVALLKARGFTAEDFALSHPGGALGRKLLLRVNDIMHTGDEIPHVKKTASLRDALLEVTRKNLGMTVICDDNMMIEGIFTDGDLRRVFDMGVDVRQLSIADVMTPGGIRVRPGILAVEALNLMQSRHITSVMVADGDHLLGVLHMHDLLRAGVV")
7.36
>>> reported("MRKIALILAMLLIPCVSFAGLLGSSSSTTPVSKEYKQQLMGSPVYIQIFKEERTLDLYVKMGEQYQLLDSYKICKYSGGLGPKQRQGDFKSPEGFYSVQRNQLKPDSRYYKAINIGFPNAYDRAHGYEGKYLMIHGDCVSIGCYAMTNQGIDEIFQFVTGALVFGQPSVQVSIYPFRMTDANMKRHKYSNFKDFWEQLKPGYDYFEQTRKPPTVSVVNGRYVVSKPLSHEVVQPQLASNYTLPEAK [P0AA99]")
1.54
